Tested on: A498
testDescription: NCI tumour cell line growth inhibition, 48 h
Active and inactive are the calls of the source. No stated cut-off is given here; in the data, active = GI50 up to about 1.1 µM and inactive = higher.
Catalogue of GI50 readings, one per entry.
measuredParameter: GI50

[[record]]
compound = "C[C@H]1[C@H](C)CC[C@]2(C(=O)OC3OC(CO)C(O)C(O)C3O)CC[C@]3(C)C(=CC[C@@H]4[C@@]5(C)C[C@@H](O)[C@@H]6OC(=O)c7cc(O)c(O)c(O)c7-c7c(cc(O)c(O)c7O)C(=O)OC[C@@]6(CO)[C@@H]5CC[C@]43C)[C@H]12 (stereo partly specified)"
measuredvalue = "> 100 µM (inactive)"

[[record]]
compound = "Cc1ccc(NC(=O)CC2C(=O)Nc3ccccc3S2(=O)=O)cc1C (stereo unspecified)"
measuredvalue = "> 100 µM (inactive)"

[[record]]
compound = "CN(C)c1cccc2c(S(=O)(=O)NCCN)cccc12"
measuredvalue = "23 µM (inactive)"

[[record]]
compound = "Cc1cn(C2OC(CO[Si](C)(C)C(C)(C)C)C(N(C)O[Si](C)(C)C(C)(C)C)C2[Se]c2ccccc2)c(=O)[nH]c1=O (stereo unspecified)"
measuredvalue = "14.9 µM (inactive)"

[[record]]
compound = "O=C(CC1(O)C(=O)Nc2ccccc21)c1ccc(F)cc1 (stereo unspecified)"
measuredvalue = "> 100 µM (inactive)"

[[record]]
compound = "Cc1ccccc1-n1c(=S)[nH]c2c(sc(=O)n2-c2ccccc2C)c1=O"
measuredvalue = "> 100 µM (inactive)"

[[record]]
compound = "C/C(=N\\Nc1nc2ccccc2n1C)c1ccc2ccccc2n1"
measuredvalue = "3.69 µM (inactive)"

[[record]]
compound = "Cc1cc(NCc2ccccc2)c2ccccc2[n+]1CCCCCCCCCC[n+]1c(C)cc(NCc2ccccc2)c2ccccc21.[O-][Cl+3]([O-])([O-])[O-].[O-][Cl+3]([O-])([O-])[O-]"
measuredvalue = "0.883 µM (active)"

[[record]]
compound = "O=C1c2ccccc2C(=O)N1CCCC(=O)n1cc(F)c(=O)[nH]c1=O"
measuredvalue = "4.69 µM (inactive)"

[[record]]
compound = "NS(=O)(=O)c1cc(Cl)c(NC(=S)NC(=O)Nc2ccc(Cl)c(Cl)c2)c(Cl)c1"
measuredvalue = "26.7 µM (inactive)"

[[record]]
compound = "Cc1cc(S(=O)(=O)Nc2nc(Nc3ccccc3)n[nH]2)c(SCC(=O)O)cc1Cl"
measuredvalue = "> 100 µM (inactive)"

[[record]]
compound = "O=C(/C=C/c1ccc(Cl)cc1)c1ccccc(=O)c1O"
measuredvalue = "2.84 µM (inactive)"

[[record]]
compound = "N#Cc1c(N)oc(-c2ccc([N+](=O)[O-])cc2)c1C#N"
measuredvalue = "22.1 µM (inactive)"

[[record]]
compound = "O=C(Cn1c2ccc(Br)cc2c2nc3ccccc3nc21)Nc1ccccc1"
measuredvalue = "34 µM (inactive)"

[[record]]
compound = "CC1CC(C)C(C(O)CC2CC(=O)N(c3ccccc3)C(=O)C2)C(O)C1 (stereo unspecified)"
measuredvalue = "> 100 µM (inactive)"

[[record]]
compound = "CC[C@@H]1C[C@@H]2CN3CCc4c([nH]c5ccc(OC)cc45)C(COC(=O)c4ccc(OC)c(OC)c4)(C2)C13"
measuredvalue = "21 µM (inactive)"

[[record]]
compound = "CC(=O)Oc1ccc(/C=C/C(=O)OCCOC(=O)/C=C/c2ccc(OC(C)=O)c(OC(C)=O)c2)cc1OC(C)=O"
measuredvalue = "22 µM (inactive)"

[[record]]
compound = "O=c1ccccc2cccc(O)c12"
measuredvalue = "> 100 µM (inactive)"

[[record]]
compound = "COC(=O)C1CC/C(=N/c2ccc(C)cc2C)N1 (stereo unspecified)"
measuredvalue = "> 100 µM (inactive)"

[[record]]
compound = "CC(=O)Oc1ccc2c(c1)C(=O)c1nc(C)c(C)nc1C2=O"
measuredvalue = "> 63.4 µM (inactive)"

[[record]]
compound = "CC(=O)C(I(OS(=O)(=O)c1ccc(C)cc1)c1ccccc1)=P(c1ccccc1)(c1ccccc1)c1ccccc1"
measuredvalue = "> 100 µM (inactive)"

[[record]]
compound = "C=CCN1C(=O)/C(=C/c2ccc(OC)cc2)NC1=S"
measuredvalue = "60.4 µM (inactive)"

[[record]]
compound = "COC(=O)/C(C#N)=C(\\Nc1ccccc1)N1CCOCC1"
measuredvalue = "> 100 µM (inactive)"

[[record]]
compound = "O=C1SC(c2ccc(Cl)cc2)(c2ccc(Cl)cc2)c2ccccc21"
measuredvalue = "> 100 µM (inactive)"

[[record]]
compound = "Cc1c(O)ccc2c(O)c(NC(=O)c3ccc4c(c3)CCC(C)(C)O4)c(=O)oc12"
measuredvalue = "45.8 µM (inactive)"

[[record]]
compound = "N=C(N)N/N=C\\c1ccc(C2CCNCC2)cc1"
measuredvalue = "> 100 µM (inactive)"

[[record]]
compound = "COC(=O)C1=C(C=O)C2C=CC1C2 (stereo unspecified)"
measuredvalue = "> 100 µM (inactive)"

[[record]]
compound = "COCOC1/C=C/CCCC#C[C@H](C)C(=O)CC1 (stereo partly specified)"
measuredvalue = "12.1 µM (inactive)"

[[record]]
compound = "Cn1c(=O)n(C2(C)CSC2)c2ccccc21"
measuredvalue = "> 100 µM (inactive)"

[[record]]
compound = "O=C(NC1CCCC1=O)c1ccccc1 (stereo unspecified)"
measuredvalue = "13.7 µM (inactive)"

[[record]]
compound = "COc1ccc2c(c1)-c1nc(=O)n(CCCN(C)C)c3ccc([N+](=O)[O-])c(c13)N2"
measuredvalue = "3.39 µM (inactive)"

